# Target: native NMDA receptors
# Protocol description: Analysis of voltage dependence of NMDA receptor block (Woodhull model with voltage-independent component, Equation (2))
# Assay type: cell-based, rat
# Condition notes: Equation (2) with fixed zδ (0.55 mono-, 1.1 dicationic); reanalysis of earlier data [16],[17]; read-out: Kvd, fixed zδ (converted)
Reported property: Kd (µM)

Example molecules with recorded Kd:
N=C(N)c1ccc(OCCCCCOc2ccc(C(=N)N)cc2)cc1 :: 27
N=C(N)c1ccc(-c2cc3ccc(C(=N)N)cc3[nH]2)cc1 :: 5000

a. CCOC(=O)c1ccc(OC(=O)CCCCCNC(=N)N)cc1 [Gabexate]
b. N=C(N)c1ccc(-c2ccc(-c3ccc(C(=N)N)cc3)o2)cc1
c. N=C(N)c1ccc(/N=N/Nc2ccc(C(=N)N)cc2)cc1
Request: Ordering: ascending Kd. Kindly provide the labels arranged according to the requested ordering.
Response: b, a, c

* * *

# Target: native NMDA receptors
# Protocol description: Analysis of voltage dependence of NMDA receptor block (Woodhull model with voltage-independent component, Equation (2))
# Format: cell-based, rat
# Condition notes: Equation (2) fit, zδ free; reanalysis of the authors' earlier voltage dependence data [16],[17]; read-out: Kvd
# Procedure: NMDA receptors were activated with 100 µM NMDA plus 10 µM glycine unless otherwise stated. The percentages of blocking of the steady-state or peak currents by different drug concentrations were measured at −80, −30 or +30 mV holding voltages. […] The voltage dependence of compounds’ action was analyzed with the classical Woodhull model with the addition of a voltage-independent component. […]
pKd: −log10 of the molar value.
Reported property: pKd

N=C(N)c1ccc(OCCCCCOc2ccc(C(=N)N)cc2)cc1 [Pentamidine] :: 4.22

I. N=C(N)c1ccc(-c2ccc(-c3ccc(C(=N)N)cc3)o2)cc1 [Furamidine]
II. N=C(N)c1ccc2cc(OC(=O)c3ccc(N=C(N)N)cc3)ccc2c1 [Nafamostat]
Request: Endpoint returns whichever of I and II has the numerically higher pKd. Kindly state the label of the option you pick.
Response: II

* * *

# Target: native NMDA receptors
# Protocol description: Analysis of voltage dependence of NMDA receptor block (Woodhull model with voltage-independent component, Equation (2))
# Type: cell-based, rat
# Condition notes: Equation (2) fit, zδ free; steady-state; read-out: Kvi, constant for voltage-independent binding (shallow site)
Reported property: pKd
The scale used: pKd is minus the common logarithm of the concentration in molar units.

Request: # query: pKd of entry N=C(N)c1ccc2cc(OC(=O)c3ccc(NC4=NCCN4)cc3)ccc2c1 [Sepimostat]
Response: 5.15

* * *

# Target: native NMDA receptors
# Protocol description: Analysis of voltage dependence of NMDA receptor block (Woodhull model with voltage-independent component, Equation (2))
# Assay type: cell-based, rat
# Condition notes: Equation (2) with fixed zδ (0.55 mono-, 1.1 dicationic); reanalysis of earlier data [16],[17]; read-out: Kvi, fixed zδ (converted)
Reported property: Kd (µM)

Examples from the recorded data:
N=C(N)c1ccc(OCCCCCOc2ccc(C(=N)N)cc2)cc1 :: 10
N=C(N)c1ccc(-c2cc3ccc(C(=N)N)cc3[nH]2)cc1 :: 3.16
N=C(N)c1ccc(-c2ccc(-c3ccc(C(=N)N)cc3)o2)cc1 :: 3.3

1. N=C(N)c1ccc2cc(OC(=O)c3ccc(N=C(N)N)cc3)ccc2c1
2. N=C(N)c1ccc(/N=N/Nc2ccc(C(=N)N)cc2)cc1
3. CCOC(=O)c1ccc(OC(=O)CCCCCNC(=N)N)cc1 [Gabexate]
Request: Task field, ranking: reported Kd, descending order. Answer by writing out the labels in the requested order.
Response: 3, 2, 1
